Molecular target: activated hepsin (#4776-SE-010, R&D Systems) (UniProt P05981 45-417, limits assumed)
Sequence (P05981 45-417 limits assumed): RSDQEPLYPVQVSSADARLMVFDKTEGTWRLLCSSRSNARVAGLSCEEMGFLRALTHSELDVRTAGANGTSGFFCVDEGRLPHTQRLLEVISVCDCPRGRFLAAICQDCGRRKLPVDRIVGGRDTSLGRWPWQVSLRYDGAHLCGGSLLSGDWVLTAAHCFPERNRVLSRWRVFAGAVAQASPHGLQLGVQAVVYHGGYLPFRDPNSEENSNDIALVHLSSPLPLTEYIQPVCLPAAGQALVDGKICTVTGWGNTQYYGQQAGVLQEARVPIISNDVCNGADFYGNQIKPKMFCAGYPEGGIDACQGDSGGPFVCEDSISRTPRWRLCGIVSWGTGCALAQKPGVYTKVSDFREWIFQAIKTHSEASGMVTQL
Test: cell-based or functional assay
Positions of bridges follow the written chain, without caps; N, C: chain ends. kbt = C-terminal Arg ketobenzothiazole
measured.endpoint: Hepsin (IC50 nM)
Give the quantity in nM, number only.

Hello, please tell me recorded Hepsin (IC50 nM) for this one: Ac-DLKR-kbt (lactam 1-3; not fully specified; printed as Cyclo(DLK)R-kbt; also: N-terminal acetyl described as 6-acetamido) [Cyclo(DLK)R-kbt, VD2173] 8.4

Hello, please tell me recorded Hepsin (IC50 nM) for this one: Ac-PQFR-kbt [MM3123 Ac-PQFR-kbt] 0.136

Hello, please tell me recorded Hepsin (IC50 nM) for this one: Ac-DQKR-kbt (lactam 1-3; also: N-terminal acetyl described as 6-acetamido) [Cyclo(DQK)R-kbt, VD3152] 22.2
